The origin of these recorded values is ChEMBL document CHEMBL4477270.

# maps each entry to its Activity
- TARGET_UNDER_TEST: Histone-lysine N-methyltransferase ASH1L (Homo sapiens)
- EXPERIMENT_SUMMARY: Inhibition of ASH1L (unknown origin) using biotin-labeled histone substrate assessed as residual activity at 50 uM in presence of [3H-Me]SAM by scintillation proximity assay relative to control
QUANTITY: Activity (%)

INSERT INTO results (compound, units_symbol, test_result) VALUES
  ('CN1CCCCC12CCCN(C(=O)c1cccc(Br)c1)C2 (stereo unspecified)', '%', 94),
  ('CN1CCCC2(CCCN(C(=O)c3cccc(Br)c3)C2)C1 (stereo unspecified)', '%', 93),
  ('CN1C[C@H]2CCCN(C(=O)c3cccc(Br)c3)[C@H]2C1', '%', 96),
  ('O=C(c1cccc(Br)c1)N1CCC[C@@H]2CNC[C@@H]21', '%', 98),
  ('O=C(c1cccc(Br)c1)N1CCCC2(CCCCN2)C1 (stereo unspecified)', '%', 104),
  ('O=C(c1cccc(Br)c1)N1C[C@@H]2CCN[C@@H]2C1', '%', 95);

----------
- TARGET_UNDER_TEST: UniProt Q03164
- Sequence (Q03164 1-2718 limits assumed): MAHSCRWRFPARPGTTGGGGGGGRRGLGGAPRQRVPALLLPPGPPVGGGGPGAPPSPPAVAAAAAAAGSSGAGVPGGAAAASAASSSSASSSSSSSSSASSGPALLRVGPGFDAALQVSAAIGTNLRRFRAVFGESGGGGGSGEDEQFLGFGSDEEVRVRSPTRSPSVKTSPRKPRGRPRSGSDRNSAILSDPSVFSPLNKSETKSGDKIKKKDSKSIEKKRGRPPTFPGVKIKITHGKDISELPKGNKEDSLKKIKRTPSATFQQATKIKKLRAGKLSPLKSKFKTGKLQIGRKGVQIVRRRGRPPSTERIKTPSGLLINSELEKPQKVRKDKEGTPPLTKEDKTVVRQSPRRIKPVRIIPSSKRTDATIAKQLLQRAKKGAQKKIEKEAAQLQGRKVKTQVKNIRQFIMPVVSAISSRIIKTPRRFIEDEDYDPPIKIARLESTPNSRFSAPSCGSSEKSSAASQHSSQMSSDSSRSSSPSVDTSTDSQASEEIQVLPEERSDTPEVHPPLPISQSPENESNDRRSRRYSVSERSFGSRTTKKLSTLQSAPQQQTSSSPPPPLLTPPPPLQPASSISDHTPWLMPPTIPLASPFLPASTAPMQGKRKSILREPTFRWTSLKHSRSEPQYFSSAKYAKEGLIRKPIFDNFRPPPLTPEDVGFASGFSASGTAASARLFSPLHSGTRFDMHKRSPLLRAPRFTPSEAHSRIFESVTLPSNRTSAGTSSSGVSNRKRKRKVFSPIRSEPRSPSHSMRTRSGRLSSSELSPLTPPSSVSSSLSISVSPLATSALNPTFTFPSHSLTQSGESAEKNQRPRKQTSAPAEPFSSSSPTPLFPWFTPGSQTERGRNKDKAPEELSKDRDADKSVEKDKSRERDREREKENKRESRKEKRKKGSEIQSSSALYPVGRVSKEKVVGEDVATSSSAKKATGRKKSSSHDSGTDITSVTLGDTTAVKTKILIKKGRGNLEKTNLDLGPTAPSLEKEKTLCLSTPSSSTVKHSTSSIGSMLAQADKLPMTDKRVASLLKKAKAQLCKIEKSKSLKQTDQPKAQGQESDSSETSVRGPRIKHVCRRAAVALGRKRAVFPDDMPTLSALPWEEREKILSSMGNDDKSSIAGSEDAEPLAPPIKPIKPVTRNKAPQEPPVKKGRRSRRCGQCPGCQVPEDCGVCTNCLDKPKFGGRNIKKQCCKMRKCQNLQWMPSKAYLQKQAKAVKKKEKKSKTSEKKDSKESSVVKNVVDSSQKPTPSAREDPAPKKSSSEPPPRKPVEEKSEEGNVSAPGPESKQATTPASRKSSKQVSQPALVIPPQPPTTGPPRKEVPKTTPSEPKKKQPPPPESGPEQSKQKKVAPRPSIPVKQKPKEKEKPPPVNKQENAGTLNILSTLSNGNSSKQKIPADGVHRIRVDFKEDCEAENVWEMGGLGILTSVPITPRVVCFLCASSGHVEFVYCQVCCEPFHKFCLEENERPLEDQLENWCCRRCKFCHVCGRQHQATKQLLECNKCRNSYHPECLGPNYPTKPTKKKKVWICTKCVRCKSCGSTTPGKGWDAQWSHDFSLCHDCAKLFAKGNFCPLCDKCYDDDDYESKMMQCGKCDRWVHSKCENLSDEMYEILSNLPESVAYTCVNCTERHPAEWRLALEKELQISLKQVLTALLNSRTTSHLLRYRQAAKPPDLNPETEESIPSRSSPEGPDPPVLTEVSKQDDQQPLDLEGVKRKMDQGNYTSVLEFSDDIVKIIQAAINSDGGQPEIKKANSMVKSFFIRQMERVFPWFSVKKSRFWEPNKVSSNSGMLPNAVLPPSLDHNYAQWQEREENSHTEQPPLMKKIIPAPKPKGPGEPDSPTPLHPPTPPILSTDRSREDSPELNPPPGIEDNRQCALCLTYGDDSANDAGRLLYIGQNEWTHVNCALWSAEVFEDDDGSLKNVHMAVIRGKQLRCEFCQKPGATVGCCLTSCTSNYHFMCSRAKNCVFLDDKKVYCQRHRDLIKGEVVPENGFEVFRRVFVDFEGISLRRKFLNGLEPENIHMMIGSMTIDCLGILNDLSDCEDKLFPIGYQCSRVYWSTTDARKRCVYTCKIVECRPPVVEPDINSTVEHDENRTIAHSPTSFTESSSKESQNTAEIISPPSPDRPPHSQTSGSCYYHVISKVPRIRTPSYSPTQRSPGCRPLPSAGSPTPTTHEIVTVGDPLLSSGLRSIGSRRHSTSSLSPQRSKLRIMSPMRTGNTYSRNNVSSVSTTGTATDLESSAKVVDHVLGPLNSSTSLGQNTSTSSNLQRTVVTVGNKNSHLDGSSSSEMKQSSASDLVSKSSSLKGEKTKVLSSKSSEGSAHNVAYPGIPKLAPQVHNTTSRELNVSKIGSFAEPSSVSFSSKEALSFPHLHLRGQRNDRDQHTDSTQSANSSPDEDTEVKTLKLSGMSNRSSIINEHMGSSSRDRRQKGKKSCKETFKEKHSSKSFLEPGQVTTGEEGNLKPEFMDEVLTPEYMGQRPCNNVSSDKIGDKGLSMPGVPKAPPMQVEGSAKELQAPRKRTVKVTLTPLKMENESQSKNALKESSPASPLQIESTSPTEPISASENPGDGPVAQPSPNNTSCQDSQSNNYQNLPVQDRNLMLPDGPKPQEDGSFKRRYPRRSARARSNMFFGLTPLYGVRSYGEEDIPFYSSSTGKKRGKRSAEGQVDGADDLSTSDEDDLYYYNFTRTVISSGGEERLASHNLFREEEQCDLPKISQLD
- Sequence (Q03164 2719-3969 limits assumed): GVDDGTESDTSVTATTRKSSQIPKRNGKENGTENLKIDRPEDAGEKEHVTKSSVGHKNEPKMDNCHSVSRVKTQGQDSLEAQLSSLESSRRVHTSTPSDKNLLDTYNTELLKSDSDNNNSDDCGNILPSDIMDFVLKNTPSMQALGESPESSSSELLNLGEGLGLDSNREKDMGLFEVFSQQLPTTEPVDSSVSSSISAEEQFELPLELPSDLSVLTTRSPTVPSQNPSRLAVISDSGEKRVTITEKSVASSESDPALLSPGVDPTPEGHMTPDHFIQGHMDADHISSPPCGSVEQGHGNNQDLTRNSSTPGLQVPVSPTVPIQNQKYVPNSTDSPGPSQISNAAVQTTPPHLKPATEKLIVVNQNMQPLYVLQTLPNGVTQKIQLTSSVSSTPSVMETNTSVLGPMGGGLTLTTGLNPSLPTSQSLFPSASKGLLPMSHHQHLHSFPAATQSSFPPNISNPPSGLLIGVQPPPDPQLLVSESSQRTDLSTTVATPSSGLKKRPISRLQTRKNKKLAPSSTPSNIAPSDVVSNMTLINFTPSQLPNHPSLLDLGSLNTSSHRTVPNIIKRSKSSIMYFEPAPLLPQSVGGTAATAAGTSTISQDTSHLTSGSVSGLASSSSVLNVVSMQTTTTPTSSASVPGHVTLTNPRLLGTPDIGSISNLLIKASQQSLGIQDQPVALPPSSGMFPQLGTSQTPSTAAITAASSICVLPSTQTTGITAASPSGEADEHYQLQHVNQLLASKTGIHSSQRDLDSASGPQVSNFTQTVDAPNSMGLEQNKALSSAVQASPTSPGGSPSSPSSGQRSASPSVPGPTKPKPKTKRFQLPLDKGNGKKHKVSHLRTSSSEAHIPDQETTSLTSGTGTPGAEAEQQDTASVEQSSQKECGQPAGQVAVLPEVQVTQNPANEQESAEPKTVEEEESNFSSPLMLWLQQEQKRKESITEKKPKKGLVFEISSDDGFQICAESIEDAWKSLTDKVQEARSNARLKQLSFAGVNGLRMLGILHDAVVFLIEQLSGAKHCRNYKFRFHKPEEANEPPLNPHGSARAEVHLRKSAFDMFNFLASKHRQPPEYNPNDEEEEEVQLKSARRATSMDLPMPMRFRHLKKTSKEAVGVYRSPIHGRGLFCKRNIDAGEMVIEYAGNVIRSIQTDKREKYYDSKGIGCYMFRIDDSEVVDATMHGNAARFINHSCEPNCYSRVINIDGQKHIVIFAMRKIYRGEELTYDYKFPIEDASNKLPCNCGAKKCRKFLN
- EXPERIMENT_SUMMARY: Inhibition of MLL1 (unknown origin) using biotin-labeled histone substrate assessed as residual activity at 50 uM in presence of [3H-Me]SAM by scintillation proximity assay relative to control
QUANTITY: Activity (%)

INSERT INTO measurements (compound, test_result) VALUES
  ('O=C(c1cccc(Br)c1)N1CCC2CNCC2C1 (centres undefined)', 108),
  ('CN1CCCC2(CCCN(C(=O)c3cccc(Br)c3)C2)C1 (centres undefined)', 95),
  ('O=C(c1cccc(Br)c1)N1CCC[C@@H]2CNC[C@@H]21', 109),
  ('CN1CCC2(CCCN(C(=O)c3cccc(Br)c3)C2)C1 (centres undefined)', 104),
  ('O=C(c1cccc(Br)c1)N1C[C@@H]2CC3CCCCN3[C@@H]2C1 (some centres undefined)', 109),
  ('CN1C[C@H]2CCCN(C(=O)c3cccc(Br)c3)[C@H]2C1', 102),
  ('CN1CCCC12CCN(C(=O)c1cccc(Br)c1)CC2', 105),
  ('O=C(c1cccc(Br)c1)N1CC[C@@H]2[C@@H](CC3CCCCN32)C1 (some centres undefined)', 109),
  ('CN1CCCC2(CCCN2C(=O)c2cccc(Br)c2)C1 (centres undefined)', 99),
  ('CN1CCC2(CC1)CCN(C(=O)c1cccc(Br)c1)CC2', 99),
  ('CN1CCCCC12CCN(C(=O)c1cccc(Br)c1)CC2', 115),
  ('CN1CC[C@H]2CN(C(=O)c3cccc(Br)c3)C[C@H]21', 105),
  ('O=C(c1cccc(Br)c1)N1CCC2(CCNCC2)CC1', 105),
  ('CN1CCCCC12CCCN(C(=O)c1cccc(Br)c1)C2 (centres undefined)', 109),
  ('O=C(c1cccc(Br)c1)N1CCCC2(CCCCN2)C1 (centres undefined)', 110),
  ('O=C(c1cccc(Br)c1)N1C[C@H]2CCCN[C@H]2C1', 107),
  ('O=C(c1cccc(Br)c1)N1C[C@@H]2CCN[C@@H]2C1', 104),
  ('CN1CCC2(CCCN2C(=O)c2cccc(Br)c2)CC1', 105),
  ('C[N+]1(C)CCCCC12CCN(C(=O)c1cccc(Br)c1)CC2', 100),
  ('CN1CCCC12CCCN(C(=O)c1cccc(Br)c1)C2 (centres undefined)', 106),
  ('O=C(c1cccc(Br)c1)N1CC[C@H]2NCC[C@H]2C1', 110),
  ('O=C(c1cccc(Br)c1)N1C[C@@H]2CC3CCCN3[C@@H]2C1 (some centres undefined)', 88),
  ('CN1CCC[C@@H]2CN(C(=O)c3cccc(Br)c3)C[C@@H]21', 107),
  ('O=C(c1cccc(Br)c1)N1CCCC2(CCNCC2)C1', 103);
